# EXPERIMENTAL_TARGET: EGFR L858R/C797S (Homo sapiens, UniProt P00533, C797S/L858R)
# Sequence (P00533 25-1210 C797S/L858R): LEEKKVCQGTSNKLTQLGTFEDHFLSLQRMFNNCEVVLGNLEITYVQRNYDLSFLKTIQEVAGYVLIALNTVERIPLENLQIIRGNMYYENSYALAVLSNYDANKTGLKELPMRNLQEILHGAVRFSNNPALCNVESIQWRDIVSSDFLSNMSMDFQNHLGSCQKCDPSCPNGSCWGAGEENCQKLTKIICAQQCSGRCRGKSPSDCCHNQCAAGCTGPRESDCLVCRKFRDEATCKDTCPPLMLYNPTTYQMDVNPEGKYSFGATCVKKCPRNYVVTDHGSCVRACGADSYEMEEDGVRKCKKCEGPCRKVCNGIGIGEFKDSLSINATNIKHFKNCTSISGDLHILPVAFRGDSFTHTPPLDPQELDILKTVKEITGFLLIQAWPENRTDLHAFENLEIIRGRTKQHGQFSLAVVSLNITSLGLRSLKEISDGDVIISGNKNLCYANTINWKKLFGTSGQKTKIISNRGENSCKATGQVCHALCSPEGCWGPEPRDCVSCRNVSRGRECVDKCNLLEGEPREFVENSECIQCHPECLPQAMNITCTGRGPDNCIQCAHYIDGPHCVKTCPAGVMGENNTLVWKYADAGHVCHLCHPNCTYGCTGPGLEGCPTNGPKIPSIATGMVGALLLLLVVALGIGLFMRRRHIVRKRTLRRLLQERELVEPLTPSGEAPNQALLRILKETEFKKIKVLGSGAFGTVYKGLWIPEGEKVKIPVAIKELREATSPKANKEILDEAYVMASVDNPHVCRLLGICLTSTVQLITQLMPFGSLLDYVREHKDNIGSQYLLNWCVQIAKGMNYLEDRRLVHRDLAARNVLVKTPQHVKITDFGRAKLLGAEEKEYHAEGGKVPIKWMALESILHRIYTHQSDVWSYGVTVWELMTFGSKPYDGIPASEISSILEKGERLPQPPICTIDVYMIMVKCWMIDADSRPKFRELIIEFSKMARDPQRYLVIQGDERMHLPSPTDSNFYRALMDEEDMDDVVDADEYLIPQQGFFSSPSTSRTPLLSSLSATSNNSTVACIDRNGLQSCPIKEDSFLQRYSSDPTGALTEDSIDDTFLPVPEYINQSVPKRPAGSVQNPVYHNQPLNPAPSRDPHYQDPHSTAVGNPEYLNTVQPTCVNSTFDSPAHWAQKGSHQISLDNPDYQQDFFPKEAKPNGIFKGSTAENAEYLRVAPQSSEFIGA
# ASSAY_PROTOCOL: Biochemical EGFR kinase assay (Lance Ultra TR-FRET), double mutant L858R/C797S
# CONDITIONS: IC50 L858R/C797S (nM) 100 μM ATP, 100 μM ATP
VALUE_TYPE: IC50 (nM)
Report only the number, with the unit nM understood.

Ask: Dear colleague, please send me the reported IC50 for O=S(=O)(C1CC1)n1cc(-c2nccc(Nc3cc(N[C@H]4CC[C@@H](CO)CC4)c(-c4ccc(CO)cn4)cn3)n2)cn1 when you can.
Reply: 1.1

Ask: Dear colleague, please send me the reported IC50 for CN1CCN(Cc2ccc(-c3cnc(Nc4ccnc(-c5cnn(S(=O)(=O)C6CC6)c5)n4)cc3N3CCC(C)(CO)CC3)nc2)CC1 when you can.
Reply: 223

Ask: Dear colleague, please send me the reported IC50 for C[C@]1(O)CC[C@@H](Nc2cc(Nc3ccnc(-c4cnn(S(=O)(=O)C5CC5)c4)n3)ncc2-c2ccc(C(F)F)cn2)CC1 when you can.
Reply: 5.4

Ask: Dear colleague, please send me the reported IC50 for CN(C)Cc1cnc(-c2cnc(Nc3ccnc(-c4cnn(S(=O)(=O)C5CC5)c4)n3)cc2N[C@H]2CC[C@@](C)(O)CC2)cn1 when you can.
Reply: 0.9

Ask: Dear colleague, please send me the reported IC50 for CN(C)C[C@H]1CC[C@@H](Nc2cc(Nc3ccnc(-c4cnn(S(=O)(=O)C5CC5)c4)n3)ncc2-c2cc(N3CCC(F)(F)CC3)ccn2)CC1 when you can.
Reply: 14.4

Ask: Dear colleague, please send me the reported IC50 for C[C@]1(O)CC[C@@H](Nc2cc(Nc3ccnc(-c4cnn(S(=O)(=O)C5CC5)c4)n3)ncc2-c2ccc(N3CCCC3)cn2)CC1 when you can.
Reply: 11.1
